Assay: Chemical stability of insulin formulations by RPC (reverse phase chromatography)
Format: physicochemical
Conditions: formulated human insulin, 3 Zn2+ per hexamer; 37° C.
Metric: hphil (hydrophilic derivatives, desamido-insulins) (% formed/year)

Field: example entries. Status: answers known.
O=C(O)COc1cccc(/C=C2\SC(=O)NC2=O)c1 :: 11.2
O=C(O)c1cc2cc(Br)ccc2cc1O [Example 533, 7-bromo-3-hydroxy-2-naphthoic acid] :: 12.5

(A) CCN(CC)c1ccc(/C=C2\SC(=O)NC2=O)cc1
(B) O=C(O)/C=C/c1ccc(/C=C2\SC(=O)NC2=O)cc1
Form field 'greater hphil (hydrophilic derivatives, desamido-insulins)' accepts A or B ; which applies? Mark your answer with the label of the selected entry.
A
